- MEASUREMENT PROTOCOL: NCI Yeast Anticancer Drug Screen. Data for the mec2-1 strain (AID 157)
- RUN CONDITIONS: S. cerevisiae mec2-1 strain, at 5.0 µM (retest, dose inferred, filed as 0.5), active compounds read high
- Description: Growth inhibition of yeast strains with defined genetic alterations is measured as a screen for potential anti-cancer activity. Selected strains with alterations in DNA damage repair or cell cycle control were exposed to compounds and growth inhibition was measured relative to vehicle treated controls. The strain used in this assay is mec2-1
This is part of a sample that, as a whole, favours compounds with a hit. Of some 79,000 tested, about 15% had one in any assay. Active and inactive are the calls of the source. Cut-off read from the data, not from the text of the source: active = growth inhibition above about 70%; inactive = the rest.
Listing: growth inhibition of selected compounds

For the compound "CC(=O)O/N=C/c1c2ccccc2cc2ccccc12" , give its measured growth inhibition value.
4% (inactive)

Quick one: give measured growth inhibition for "COc1ccc(/C=C2\S/C(=N/Nc3nc(-c4ccccc4)cs3)NC2=O)cc1OC"
-8% (inactive)

State its growth inhibition for this compound: "O=[N+]([O-])C(=C(NCc1ccccc1)NCc1ccccc1)C(Cl)=C(Cl)Cl"
-7% (inactive)

Could you please provide reported growth inhibition for "Nc1ccc2cc(Br)c3ccccc3c2c1" ? Thanks!
-18% (inactive)

Data origin, for the record: PubChem BioAssay (NCI)
